Recorded growth for the following compounds
# Test system: A498 renal
# ASSAY_COMMENT: NCI-60 one-dose screen, 48 h (100 = growth as untreated, 0 = no growth, -100 = all killed)
# RUN_CONDITIONS: 10 µM unless noted
Compounds without any hit were thinned out: in the full panel of roughly 83,000, 20% have a hit.
The response must be a number in % with no trailing unit.

Below are worked cases with known answers.
INSERT INTO measurements (compound, assay_target, display_unit, test_value) VALUES
  ('c1ccc(CCN2CCCCC2)nc1', 'A498 renal', '%', 107),
  ('Cc1ccc(C(=O)O[C@H](C(=O)O)[C@H](OC(=O)c2ccc(C)cc2)C(=O)O)cc1', 'A498 renal', '%', 120),
  ('CC1=C([Te]c2ccccc2)C(=O)c2ccccc2C1=O', 'A498 renal', '%', -66);

Query: So what's the measured growth for this one? CCC(=O)C(CC(C)N1CCCCCC1)(c1ccccc1)c1ccccc1 (stereo unspecified)
Reply: 84.5

Query: # input compound: `O=[N+]([O-])c1cc(Cl)c(Cl)cc1Cl` ; wanted: its growth
Reply: 104

Query: Item under review: `Cc1cc(Br)c([N+](=O)[O-])cc1[N+](=O)[O-]` . Reported growth?
Reply: 97.9

Query: Which measured growth value corresponds to `c1ccc2c(c1)O[As](O[As]1Oc3ccccc3O1)O2` ?
Reply: 27.5

Query: Given the entry `C[C@]12C[C@H](c3ccoc3)OC(=O)[C@H]1CC[C@@]1(C)[C@@H]2[C@H]2C=C[C@]1(O)C(=O)O2` , report its measured growth.
Reply: 105

Query: If you can, please state the reported growth value of N#CC(N)c1ccccc1 (stereo unspecified) .
Reply: 81.2

Query: Fill in: growth of `CC[C@H](C)[C@H](NC(=O)C12CC(NC)(C1)C2)C(=O)N(C)[C@H](C[C@@H](OC(C)=O)c1nc(C(=O)N[C@@H](Cc2ccccc2)C[C@H](C)C(=O)OC)cs1)C(C)C` is ___
Reply: -0.0952

Query: Quick one: growth for COc1ccc(C(C#N)C(C)=O)cc1 (stereo unspecified) ?
Reply: 96.8

###

# Tested on: SF-295 CNS
# ASSAY_COMMENT: NCI-60 one-dose screen, 48 h (100 = growth as untreated, 0 = no growth, -100 = all killed)
# RUN_CONDITIONS: 10 µM unless noted
Compounds without any hit were thinned out: in the full panel of roughly 83,000, 20% have a hit.
Listing of recorded growth by entry.
Just the number please, in %, no unit attached.

INSERT INTO measurements (molecule, assay_target, measurement_kind, test_value) VALUES
  ('CCCCOCCOP(=O)(OCCOCCCC)OCCOCCCC', 'SF-295 CNS', 'growth', 103),
  ('Cc1ccccc1-n1c(/C=C\c2ccccn2)nc2ccccc2c1=O', 'SF-295 CNS', 'growth', 74.4),
  ('O=C1CCCCC1CN1CCCCC1 (stereo not drawn)', 'SF-295 CNS', 'growth', 97.2),
  ('COC(=O)C12C3C4C1C1C2C3C41NC(=O)c1csc([C@@H](C[C@H](C(C)C)N(C)C(=O)[C@@H](NC(=O)[C@H]2CCCCN2C)C2CC2)OC(C)=O)n1 (stereo partly drawn)', 'SF-295 CNS', 'growth', 9.2),
  ('Nc1cccnc1', 'SF-295 CNS', 'growth', 122);

Query: Find the recorded growth belonging to `c1ccc2c(c1)O[As](O[As]1Oc3ccccc3O1)O2` and report it.
Reply: 99.3

Query: If you can, please state the reported growth value of CC1OC(=O)C(C(C)C)NC(=O)C(C(C)C)OC(=O)C(C(C)C)NC(=O)C(C)OC(=O)C(C(C)C)NC(=O)C(C(C)C)OC(=O)C(C(C)C)NC(=O)C(C)OC(=O)C(C(C)C)NC(=O)C(C(C)C)OC(=O)C(C(C)C)NC1=O (stereo not drawn) .
Reply: -27.1

Query: Item `C#Cc1cccc(Nc2nc(Cl)nc3cc(NC(=O)CF)ccc23)c1` has what recorded growth?
Reply: 71.9

Query: If you can, please state the reported growth value of `O=C/C=C/c1ccco1` .
Reply: 99.9

Query: Any idea what growth was measured for `Cc1cc(N(CCCl)CCCl)ccc1C=Nc1ccc(-c2csc(-c3ccccc3)n2)cc1` ?
Reply: 66.2

Query: Requested read-out: growth. Entry: `O=NN(c1ccccc1)c1ccccc1`
Reply: 102

###

# System: OVCAR-3 ovarian
# ASSAY_COMMENT: NCI-60 one-dose screen, 48 h
# RUN_CONDITIONS: 10 µM unless noted
Compounds without any hit were thinned out: in the full panel of roughly 83,000, 20% have a hit. Calls of active or inactive are those of the source. The calls were made as follows: active = growth percent below 10; inactive = the rest.
Field 'call' accepts active, inactive

Example entries begin here.
INSERT INTO results (compound, group_label) VALUES
  ('O=C(Cc1ccccc1)c1ccccc1', 'inactive'),
  ('O=C(CBr)OCCOC(=O)CBr', 'inactive');

Query: Recorded test outcome, item `Cc1cc(Br)c([N+](=O)[O-])cc1[N+](=O)[O-]`
Reply: inactive

Query: How did this test come out for `Cc1nc2ccccc2c(=O)n1-c1ccccc1F` ?
Reply: inactive

Query: What was the test verdict on `Cn1cc(C(=O)C[n+]2ccccc2)c2ccccc21` ?
Reply: inactive

Query: recorded result category for `O=C(NC1=NCC[Se]1)c1ccccc1O` in this test
Reply: inactive

Query: Recorded test outcome, item `O=NN1CCCCC1`
Reply: inactive

Query: Field: outcome | Entry: `C[C@]12CC[C@@H](OC(=O)N(CCCl)N=O)C[C@@H]1CC[C@@H]1[C@@H]2CC[C@]2(C)C(=O)CC[C@@H]12`
Reply: inactive

Query: Which outcome was assigned to `N#CCc1ccc(CC#N)cc1` in this test?
Reply: inactive

Query: I would be grateful if you could indicate the recorded call for `COc1ccc(N)cc1OC` .
Reply: inactive

Query: Each compound tested received a call. Report the one for `CC(C)CCC1C(=O)NC(=O)NC1=O` .
Reply: inactive

Query: Please state the recorded outcome for this compound: CC12CCC3C4CCC(=O)C=C4CCC3C1CC1CC(=O)OC12 (stereo not drawn)
Reply: inactive

Query: # outcome recorded in this test, key = `COc1cc(C=C2C(=O)NC(=O)NC2=O)ccc1O`
Reply: inactive

###

# Tested on: DU-145 prostate
# ASSAY_COMMENT: NCI-60 one-dose screen, 48 h (100 = growth as untreated, 0 = no growth, -100 = all killed)
# RUN_CONDITIONS: 10 µM unless noted
This is part of a sample that, as a whole, favours compounds with a hit. Of some 83,000 tested, about 20% had one in any assay.
MEASUREMENT_KIND: growth (%)
Value expressed in %; do not type the unit.

Query: Given the compound C[N+]12CCC34C5=CC(=O)C(=O)C=C5[N+]5(C)C(=O)CC6OCC=C(C1)C(CC32)C6C45 (stereo not drawn) , what is its reported growth?
Reply: 102

Query: Would you mind telling me what growth value was observed for `CN(C)[C@@H]1C(=O)C(C(N)=O)=C(O)[C@@]2(O)C(=O)C3=C(O)c4c(O)ccc(Cl)c4[C@@](C)(O)[C@H]3C[C@@H]12` ?
Reply: 103

Query: // growth lookup, key: CCOC(=O)c1cncn1C(C)c1ccccc1 (stereo not drawn)
Reply: 120

Query: GET /values?readout=growth&item= COC(=O)C12C3C4C1C1C2C3C41NC(=O)c1csc([C@@H](C[C@H](C(C)C)N(C)C(=O)[C@@H](NC(=O)[C@H]2CCCCN2C)C2CC2)OC(C)=O)n1 (stereo partly drawn)
Reply: 8.04

Query: Give its growth value. Item: CC12CCC3C(CCC4CC(O)CCC43C)C1CCC2=O (stereo not drawn)
Reply: 103

Query: // returns reported growth for input `CCCCS(=O)(=O)Cl`
Reply: 113

Query: Quick check: growth of `CCOP(=O)(OCC)C(=O)N(CC)CC` ?
Reply: 107

Query: For the compound `CO[C@H]1[C@H](O[C@@H]2C[C@@H]3C/C=C/C(=O)O[C@@H](CO)C[C@H](O)[C@@H]4C[C@H](C)[C@H](C/C=C\C=C\[C@H](C)C[C@H](C2)O3)O4)O[C@@H](C)[C@H](O)[C@H]1O` , what growth is on record?
Reply: 52.5

###

# Tested on: DU-145 prostate
# ASSAY_COMMENT: NCI-60 one-dose screen, 48 h (100 = growth as untreated, 0 = no growth, -100 = all killed)
# RUN_CONDITIONS: 10 µM unless noted
About 83,000 compounds went through this panel and 20% of them were active in at least one assay; those are over-represented in the sample as a whole.
MEASUREMENT_KIND: growth (%)
State just the number; it will be interpreted in %.

Sample records with growth:
INSERT INTO assay_data (compound, measurement_kind, test_value) VALUES
  ('COCC1OC2OC3C(COC)OC(OC4C(COC)OC(OC5C(COC)OC(OC6C(COC)OC(OC7C(COC)OC(OC8C(COC)OC(OC1C(O)C2O)C(O)C8O)C(O)C7O)C(O)C6O)C(O)C5O)C(O)C4O)C(O)C3O (stereo unspecified) (tested in a mixture with another compound)', 'growth', 113),
  ('CC1(C)S[C@H]2CC[C@H]3OC(=O)[C@@H]1N23', 'growth', 116),
  ('CNC(=O)O/N=C(\SC)C(=O)N(C)C', 'growth', 117);

Query: Which growth value is on record for `c1ccc2c(c1)sc1ccccc12` ?
Reply: 110
